Assay: Pharmacokinetic test, oral or intravenous administration
Assay type: in vivo
Conditions: mouse, blood; intravenous injection, 20 mg/kg, mice
readout_name: half-life

> print(dat)
                                   molecule  observed.value
1  CN(c1ncnc2[nH]ccc12)[C@@H]1CCN(C(=O)CC#N)C1.Cl          1.97 h

###

Molecular target: Human JAK3 (Homo sapiens, UniProt P52333)
Construct: purchased Millipore, Germany
Sequence (P52333 1-1124): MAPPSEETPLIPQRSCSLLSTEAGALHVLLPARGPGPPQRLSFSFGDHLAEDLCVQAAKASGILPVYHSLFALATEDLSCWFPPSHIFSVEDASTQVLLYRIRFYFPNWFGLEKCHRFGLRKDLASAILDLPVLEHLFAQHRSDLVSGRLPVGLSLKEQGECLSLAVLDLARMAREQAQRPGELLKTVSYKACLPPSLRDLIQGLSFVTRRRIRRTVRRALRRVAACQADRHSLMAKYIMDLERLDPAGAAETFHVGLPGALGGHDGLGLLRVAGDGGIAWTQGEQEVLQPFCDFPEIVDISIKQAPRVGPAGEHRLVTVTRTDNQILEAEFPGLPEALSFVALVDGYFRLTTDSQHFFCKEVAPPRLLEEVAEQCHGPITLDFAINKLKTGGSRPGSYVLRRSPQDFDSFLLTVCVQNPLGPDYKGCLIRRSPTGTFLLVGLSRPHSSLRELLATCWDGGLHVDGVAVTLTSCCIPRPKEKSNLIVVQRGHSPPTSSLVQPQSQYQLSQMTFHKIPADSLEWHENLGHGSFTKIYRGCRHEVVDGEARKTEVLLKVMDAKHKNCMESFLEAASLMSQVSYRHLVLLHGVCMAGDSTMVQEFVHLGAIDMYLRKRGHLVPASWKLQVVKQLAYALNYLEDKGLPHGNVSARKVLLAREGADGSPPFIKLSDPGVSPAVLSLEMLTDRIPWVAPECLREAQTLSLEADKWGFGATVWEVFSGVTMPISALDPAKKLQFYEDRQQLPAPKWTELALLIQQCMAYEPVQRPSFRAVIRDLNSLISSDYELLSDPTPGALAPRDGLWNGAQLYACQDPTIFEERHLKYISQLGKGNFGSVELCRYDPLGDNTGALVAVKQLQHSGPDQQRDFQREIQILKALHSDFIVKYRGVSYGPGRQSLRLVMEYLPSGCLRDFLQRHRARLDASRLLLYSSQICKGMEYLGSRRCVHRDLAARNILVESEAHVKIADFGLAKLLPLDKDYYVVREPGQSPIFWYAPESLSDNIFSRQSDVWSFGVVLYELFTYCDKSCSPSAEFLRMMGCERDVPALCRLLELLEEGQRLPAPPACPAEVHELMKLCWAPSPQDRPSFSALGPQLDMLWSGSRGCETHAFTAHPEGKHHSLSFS
Assay: In-vitro kinase inhibition test, JAK3
Format: biochemical
Conditions: compound at 1 uM; read-out: JAK3 kinase-phosphorylation inhibitory level (% inhibition)
Assign 1 (yes) to entries whose inhibition at 1 µM meets or exceeds 20%; assign 0 (no) to the rest.

> print(dat)
                                    compound  category
 1  CN(c1ncnc2[nH]ccc12)[C@H]1CCN(C(=O)CC#N)C1   1 (yes)
 2  N#CCC(=O)N1CCCC(COc2ncnc3[nH]ccc23)C1 (centres unmarked)    0 (no)
 3  CN(c1ncnc2[nH]ccc12)[C@@H]1CCN(S(=O)(=O)c2cccc(C#N)c2)C1   1 (yes)
 4  CN(c1ncnc2[nH]ccc12)C1CCN(S(=O)(=O)c2cccc(C#N)c2)CC1    0 (no)
 5  CC(C)COC(=O)N1CC[C@@H](N(C)c2ncnc3[nH]ccc23)C1    0 (no)
 6  CN(c1ncnc2[nH]ccc12)C1CCN(S(=O)(=O)c2ccccc2)CC1   1 (yes)
 7      N#CCC(=O)N1CCC(Oc2ncnc3[nH]ccc23)CC1    0 (no)
 8  Cc1cccc(S(=O)(=O)N2CC[C@@H](N(C)c3ncnc4[nH]ccc34)C2)c1    0 (no)
 9  CN(c1ncnc2[nH]ccc12)[C@@H]1CCN(S(C)(=O)=O)C1   1 (yes)
10  CN(c1ncnc2[nH]ccc12)[C@@H]1CCN(S(=O)(=O)c2ccccc2[N+](=O)[O-])C1   1 (yes)
11  N#Cc1cccc(S(=O)(=O)N2CCCC(COc3ncnc4[nH]ccc34)C2)c1 (centres unmarked)    0 (no)
12  CN(c1ncnc2[nH]ccc12)[C@@H]1CCN(S(=O)(=O)c2ccc(C(F)(F)F)cc2)C1    0 (no)
13  CN(c1ncnc2[nH]ccc12)[C@@H]1CCN(C(=O)Nc2ccccc2)C1   1 (yes)
14  CN(c1ncnc2[nH]ccc12)[C@@H]1CCCN(C(=O)CC#N)C1   1 (yes)
15  CCS(=O)(=O)N1CC[C@@H](N(C)c2ncnc3[nH]ccc23)C1   1 (yes)
16  N#Cc1cccc(S(=O)(=O)N2CC[C@@H](Nc3ncnc4[nH]ccc34)C2)c1    0 (no)
17  CN(c1ncnc2[nH]ccc12)[C@@H]1CCN(S(=O)(=O)c2ccc([N+](=O)[O-])cc2)C1   1 (yes)
18  CN(c1ncnc2[nH]ccc12)[C@@H]1CCN(S(=O)(=O)c2ccc3ccccc3c2)C1   1 (yes)
19   CN(c1ncnc2[nH]ccc12)[C@@H]1CCN(CCC#N)C1   1 (yes)
20  CCN(c1ncnc2[nH]ccc12)[C@@H]1CCN(S(=O)(=O)c2cccc(C#N)c2)C1    0 (no)
21  CN(c1ncnc2[nH]ccc12)[C@@H]1CCN(S(=O)(=O)N2CCCCC2)C1    0 (no)
22  CN(c1ncnc2[nH]ccc12)[C@H]1CN(C(=O)CC#N)CC1(C)C   1 (yes)
23  CN(c1ncnc2[nH]ccc12)[C@@H]1CCN(S(=O)(=O)c2ccc(C#N)cc2)C1    0 (no)
24  CN(c1ncnc2[nH]ccc12)[C@@H]1CN(C(=O)CC#N)CC1(C)C    0 (no)
25  N#CCC(=O)N1C[C@@H]2CCCN(c3ncnc4[nH]ccc34)[C@@H]2C1    0 (no)
26  Cc1ccc(S(=O)(=O)N2CC[C@@H](N(C)c3ncnc4[nH]ccc34)C2)cc1    0 (no)
27  CN(c1ncnc2[nH]ccc12)[C@@H]1CCN(S(=O)(=O)c2cn(C)cn2)C1    0 (no)
28   CN(c1ncnc2[nH]ccc12)C1CCN(C(=O)CC#N)CC1    0 (no)
29    CCCCN1CC[C@@H](N(C)c2ncnc3[nH]ccc23)C1    0 (no)
30  CCN(c1ncnc2[nH]ccc12)[C@@H]1CCN(C(=O)CC#N)C1   1 (yes)
31  COc1ccc(S(=O)(=O)N2CC[C@@H](N(C)c3ncnc4[nH]ccc34)C2)cc1    0 (no)
32  CN(c1ncnc2[nH]ccc12)[C@@H]1CCN(C(=O)CN=[N+]=[N-])C1   1 (yes)
33  CN(c1ncnc2[nH]ccc12)[C@@H]1CCN(S(=O)(=O)c2cccc(F)c2)C1   1 (yes)

Values were extracted from patent US10407430B2.
